# tested_system: Sterol 14-alpha demethylase (Trypanosoma cruzi (strain CL Brener)) (UniProt Q7Z1V1)
# Sequence (Q7Z1V1 whole entry, looked up): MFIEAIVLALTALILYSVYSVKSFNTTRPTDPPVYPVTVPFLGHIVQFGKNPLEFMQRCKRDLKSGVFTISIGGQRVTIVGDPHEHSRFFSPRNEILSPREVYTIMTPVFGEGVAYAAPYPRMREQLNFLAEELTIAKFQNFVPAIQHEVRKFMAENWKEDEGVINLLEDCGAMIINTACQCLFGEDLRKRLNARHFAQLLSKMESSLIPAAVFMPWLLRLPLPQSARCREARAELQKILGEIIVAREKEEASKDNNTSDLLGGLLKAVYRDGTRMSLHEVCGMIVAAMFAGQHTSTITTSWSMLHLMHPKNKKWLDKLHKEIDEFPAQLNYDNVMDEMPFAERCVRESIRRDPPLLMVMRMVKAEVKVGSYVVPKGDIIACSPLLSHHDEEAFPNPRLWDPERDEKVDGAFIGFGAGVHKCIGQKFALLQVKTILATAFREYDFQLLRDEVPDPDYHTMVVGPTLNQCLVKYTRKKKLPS
# assay_name: TcCYP51 inhibitors, dose response, mechanism study for T. cruzi antiparasitic project, biochemical, recombinant enzyme (AID 1159558);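 also: enzyme in bacterial membranes with Anopheles gambiae CYP reductase and cytochrome b5 partners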
# cond: recombinant T. cruzi CYP51, BOMCC fluorescence
Active and inactive are the calls of the source.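 The calls were made as follows: active = IC50 against T. cruzi CYP51 below a set limit; inactive = the rest.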
Hello, when you answer, please use one of the following outcomes: 1 = active, 0 = inactive

molecule=CC(=O)Nc1ccc(-c2csc(NC(=O)c3ccc([N+](=O)[O-])s3)n2)cc1 label_class=1
molecule=CCC(=O)N1N=C(c2ccc3c(c2)CCCC3)Sc2c1ncn2C(=O)CC label_class=0
molecule=Cc1[nH]nc(Nc2ccnc3[nH]ccc23)c1C label_class=1
molecule="COc1ccc(C2CC(c3ccccc3Cl)=NN2C(=O)CNC(=O)C2CCCC2)cc1 (stereo not drawn)" label_class=1
molecule=COc1cccc(-c2cc(C(F)(F)F)nc(-n3ccc([N+](=O)[O-])n3)n2)c1 label_class=0
molecule=O=C(c1cccc(Nc2ncc(-c3ccc4c(c3)OCO4)cn2)c1)N1CCOCC1 label_class=1
molecule=O=C(Nc1ccc(C(F)(F)F)cc1)Nc1cccc([N+](=O)[O-])c1 label_class=1
molecule=O=c1[nH]ccc2ccc(-c3ccncc3)cc12 label_class=1
molecule="CCS(=O)(=O)Nc1ccc(C2=NN(C(=O)c3cccs3)C(c3ccccc3OC)C2)cc1 (stereo not drawn)" label_class=1
molecule=Cc1cc(C)n(-c2nc(NC(C)C)nc(NC(C)(C)C)n2)n1 label_class=0

Which outcome was assigned to `O=[N+]([O-])c1ccc(-c2nnn(-c3ccc(Cl)cc3)n2)o1` in this test?
0

Which outcome was assigned to `O=C(Nc1ccc(Br)cn1)c1ccc(Cn2cnc([N+](=O)[O-])n2)cc1` in this test?
0

Which outcome was assigned to `O=C(NCCc1csc(-c2ccc(F)cc2)n1)c1ccco1` in this test?
0

Which outcome was assigned to `COc1ccc(-c2csc(NC(=O)c3ccc([N+](=O)[O-])s3)n2)cc1OC` in this test?
0

Which outcome was assigned to `c1ccc(CCNCc2cncc3nc(-c4cnccn4)n(C4CCCCC4)c23)cc1` in this test?
1

Which outcome was assigned to `O=C(NCc1ccncc1)c1ccccc1N1CCCN(C(=O)Cc2ccc(F)c(F)c2)CC1` in this test?
1

Which outcome was assigned to `Cc1cc(N2CCc3ccccc3C2)nc(Nc2ccc(S(=O)(=O)N3CCOCC3)cc2)n1` in this test?
0

Which outcome was assigned to Cc1ccc(C)c(CN2C(=O)NC3(CCc4ccccc43)C2=O)c1 (stereo not drawn) in this test?
1

Which outcome was assigned to `Nc1nc(-c2ccccn2)nc(-n2nc(-c3cccc(C(F)(F)F)c3)cc2N)n1` in this test?
0

Which outcome was assigned to `COc1ncc(-c2ccc3nccc(-c4ccncc4)c3c2)cc1NS(C)(=O)=O` in this test?
1

Which outcome was assigned to O=C(NCC1CCCCN1C(=O)c1cccc2ccccc12)c1ccccc1 (stereo not drawn) in this test?
0

----------
A collection of compounds and their measured IC50
# tested_system: Sterol 14-alpha demethylase (Trypanosoma cruzi (strain CL Brener))
# assay_name: TcCYP51 inhibitors, dose response, mechanism study for T. cruzi antiparasitic project, biochemical, recombinant enzyme (AID 1159558);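 also: enzyme in bacterial membranes with Anopheles gambiae CYP reductase and cytochrome b5 partners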
# cond: recombinant T. cruzi CYP51, BOMCC fluorescence
Active and inactive are the calls of the source.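 The calls were made as follows: active = IC50 against T. cruzi CYP51 below a set limit; inactive = the rest.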

Check out these entries, answers already filled in.
compound=O=C(Nc1ccc(C(F)(F)F)cc1)NC1(C(=O)NCc2ccco2)CCCCC1 tested_system="Sterol 14-alpha demethylase (Trypanosoma cruzi (strain CL Brener))" test_value="> 32 µM (inactive)"
compound="CCN(Cc1nc2ccc(C(=O)N3CCN(c4ncccn4)CC3)cc2[nH]1)C1CCCc2cccnc21 (centres undefined)" tested_system="Sterol 14-alpha demethylase (Trypanosoma cruzi (strain CL Brener))" test_value="7.9 µM"
compound="CC1=C(C(=O)Nc2ccc(Cl)cc2)C(c2ccncc2)n2ncc(C(=O)Nc3ccccc3)c2N1 (centres undefined)" tested_system="Sterol 14-alpha demethylase (Trypanosoma cruzi (strain CL Brener))" test_value="0.13 µM"
compound=O=C(Cc1ccccc1)Nc1ccccc1C(=O)Nc1nccs1 tested_system="Sterol 14-alpha demethylase (Trypanosoma cruzi (strain CL Brener))" test_value="> 100 µM (inactive)"

Kindly consider the entry below.
Reported IC50 for `CCNc1cc(-c2ccccn2)nc(Nc2ccccc2)n1` was > 100 µM (inactive)
